# MEASURED ON: Galanin receptor type 2 (Homo sapiens) (UniProt O43603)
# Sequence (O43603 whole entry, looked up): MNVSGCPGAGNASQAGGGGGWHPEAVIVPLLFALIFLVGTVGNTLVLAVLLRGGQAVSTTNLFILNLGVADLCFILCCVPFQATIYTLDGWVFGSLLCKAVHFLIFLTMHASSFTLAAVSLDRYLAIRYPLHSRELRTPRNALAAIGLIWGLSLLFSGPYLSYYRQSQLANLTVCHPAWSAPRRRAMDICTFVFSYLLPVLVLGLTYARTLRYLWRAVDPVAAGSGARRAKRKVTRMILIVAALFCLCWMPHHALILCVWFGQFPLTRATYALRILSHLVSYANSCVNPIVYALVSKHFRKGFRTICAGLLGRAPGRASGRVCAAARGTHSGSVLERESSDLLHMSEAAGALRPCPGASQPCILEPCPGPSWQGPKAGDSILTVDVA
# PROTOCOL DESCRIPTION: GALR2 receptor agonists, primary screen, cell-based (AID 803)
# CONDITIONS USED: GALR2-expressing cells, agonist activation read-out; at 5.6 µM
The whole screen tested about 140,000 compounds, of which about 680 (0.49%) were called active. Rule as the data show it: active = activation above about 5% (passing the limit was not always enough); inactive = the rest. This is one part of a sample in which actives are shown more often than they occur.
Valid outcomes are listed here; reply with one: active, inactive

Record excerpt, results attached:
COc1ccc(Nc2cc(C)nc(-n3nc(C)cc3C)n2)cc1: inactive
CCOc1ccc(Br)cc1S(=O)(=O)Nc1ccc(C(=O)OC(C)C(=O)N(C)c2ccccc2)cc1 (stereo not given): inactive
CCOC(=O)CSc1nc2sc3c(c2c(=O)[nH]1)CC(C)(C)OC3: inactive
O=C1COc2ccc(NC(=O)N3CCN(c4ccc(F)cc4)CC3)cc2N1: active

Query: Tell me the recorded outcome of this test for Cn1c(=N)n(CC(O)c2ccccc2)c2ccccc21 (stereo not given) .
Result: inactive

Query: Tell me the recorded outcome of this test for `O=C(/C=C/c1ccc(Cl)cc1)N1CCN(c2ccccc2[N+](=O)[O-])CC1` .
Result: inactive

Query: Tell me the recorded outcome of this test for `CCCn1nc(NS(=O)(=O)c2ccccc2)c2cc3cc(C)ccc3nc21` .
Result: inactive

Query: Tell me the recorded outcome of this test for `O=C(Nc1cccc2ncccc12)c1ccc(-c2ccc(Cl)cc2Cl)o1` .
Result: inactive

Query: Tell me the recorded outcome of this test for CC(Sc1cccc[n+]1[O-])C(=O)Nc1cccc(S(=O)(=O)N2CCOCC2)c1 (stereo not given) .
Result: inactive

Query: Tell me the recorded outcome of this test for `Cc1cc(-c2cccs2)nc(-n2cccc2)n1` .
Result: inactive

Hey, just so you know, these numbers are from PubChem BioAssay AID803.
